test context: in isopropanol, 308.15 K

compound: CC(C)[C@H](NC(=O)OCC1c2ccccc2-c2ccccc21)C(=O)O
solubility (mole fraction): 0.0352

----------
test context: in n-propanol, 298.15 K

compound: CC(C)[C@H](NC(=O)OCC1c2ccccc2-c2ccccc21)C(=O)O
solubility (mole fraction): 0.0227

----------
test context: in isopentanol, 303.15 K

compound: CC(C)[C@H](NC(=O)OCC1c2ccccc2-c2ccccc21)C(=O)O
solubility (mole fraction): 0.0231

----------
test context: in isopropanol, 313.15 K

compound: CC(C)[C@H](NC(=O)OCC1c2ccccc2-c2ccccc21)C(=O)O
solubility (mole fraction): 0.0448
